Cited source for all entries: patent US20250304927A1

Molecular target: T1, thermostable variant of Streptomyces mobaraensis transglutaminase (Streptomyces mobaraensis, UniProt P81453 79-407)
T1 sequence: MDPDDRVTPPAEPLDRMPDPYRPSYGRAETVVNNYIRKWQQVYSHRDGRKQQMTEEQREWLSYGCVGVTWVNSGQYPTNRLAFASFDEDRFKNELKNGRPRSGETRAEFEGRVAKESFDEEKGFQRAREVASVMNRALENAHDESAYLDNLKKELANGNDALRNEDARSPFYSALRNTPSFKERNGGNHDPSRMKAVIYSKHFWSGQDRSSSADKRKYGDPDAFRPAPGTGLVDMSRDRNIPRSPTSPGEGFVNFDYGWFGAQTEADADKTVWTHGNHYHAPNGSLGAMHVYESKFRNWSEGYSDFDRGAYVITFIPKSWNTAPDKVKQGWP
Assay: cell-based or functional assay
Improvement in binding affinity of inhibitory peptide relative to WT for assorted binders
QUANTITY_NAME: Improvement in binding affinity of inhibitory peptide relative to WT

BINDER	RESULT_VALUE
MDNGAGEECKSYAETYRLTADDVANINALNESAPAASSAGPSFRAP [pro-peptide variant T9C]	> 1.2 fold
MDNGAGEETKSYAEQYRLTADDVANINALNESAPAASSAGPSFRAP [pro-peptide variant T15Q]	> 1.2 fold
MPNGAGEETKSYAETYRLTADDVANINALNESAPAASSAGPSFRAP [pro-peptide variant D2P]	> 1.2 fold
MDNGAGEETKSYAETYRLTADHVANINALNESAPAASSAGPSFRAP [pro-peptide variant D22H]	> 1.2 fold
MDNGAGEETKSYAETYRLTADDVANINALNESAPAASSAGPSFRAQ [pro-peptide variant P46Q]	> 1.2 fold
MDNGAGEETKSYAETYRLTASDVANINALNESAPAASSAGPSFRAP [pro-peptide variant D21S]	> 1.2 fold
MDNGAGEEKKSYAETYRLTADDVANINALNESAPAASSAGPSFRAP [pro-peptide variant T9K]	> 1.2 fold
MDNGAGEETKSYAETYRLTADDVANINALNESAPAASHAGPSFRAP [pro-peptide variant S38H]	> 1.2 fold
MDNGAGEETKSYAETYRLTADDVANINALNESAPAASSAGPSFRAA [pro-peptide variant P46A]	> 1.2 fold
MDNGAGEEDKSYAETYRLTADDVANINALNESAPAASSAGPSFRAP [pro-peptide variant T9D]	> 1.2 fold
MDNGAGEETKSYAETYRFTADDVANINALNESAPAASSAGPSFRAP [pro-peptide variant L18F]	> 1.2 fold
MDNGAGEETKSYAETYRLTADNVANINALNESAPAASSAGPSFRAP [pro-peptide variant D22N]	> 1.2 fold
